studyTarget: UniProt:Q9H2X9
measurementProtocol: modulation of KCC2 K-Cl transport – cell-based, assay 2, dose response (AID 1723)
studyConditions: inactive by the depositor's call
measurementLabel: EC50 (µM)
Expressed in µM, but write only the number.

Form field EC50, entry "Cc1ccc(-c2ccc(C=NNC(N)=S)o2)cc1" : 47

====

studyTarget: Solute carrier family 12 member 5 (Homo sapiens, UniProt Q9H2X9)
measurementProtocol: modulation of KCC2 K-Cl transport – cell-based, assay 2, dose response (AID 1723)
Measured EC50, listed per entry for reference.
Could you give me the number in µM? Just the number is fine.

[[record]]
structurenotation = "Oc1ccccc1CN=Nc1nc2ccccc2o1"
measurementlabel = "EC50"
recordedresult = 49

[[record]]
structurenotation = "COC(=O)c1sccc1NC(=S)OC"
measurementlabel = "EC50"
recordedresult = 2.46

[[record]]
structurenotation = "S=C(NCCc1ccccc1)NN=Cc1cccc(Cl)c1Cl"
measurementlabel = "EC50"
recordedresult = 14.9

[[record]]
structurenotation = "O=[N+]([O-])c1ccccc1C=C[CH+][N-]n1c(-c2ccc(Cl)cc2)n[nH]c1=S"
measurementlabel = "EC50"
recordedresult = 148

[[record]]
structurenotation = "O=C(C=Cc1ccccc1)CC(=O)c1ccccc1O"
measurementlabel = "EC50"
recordedresult = 23.6

[[record]]
structurenotation = "O=[N+]([O-])c1ccc(-c2cn(-c3ccccc3F)c(=S)[nH]2)cc1"
measurementlabel = "EC50"
recordedresult = 0.507

[[record]]
structurenotation = "CC(C)c1ccc(OCC(=O)NNC(=O)c2cnccn2)cc1"
measurementlabel = "EC50"
recordedresult = 17

[[record]]
structurenotation = "S=c1nc(-c2ccc3c(c2)CCO3)cc[nH]1"
measurementlabel = "EC50"
recordedresult = 11.2

[[record]]
structurenotation = "CCOc1cccc(C(=O)NC(=S)Nc2cccc(C)c2)c1"
measurementlabel = "EC50"
recordedresult = 1.33

[[record]]
structurenotation = "O=C1OC(c2ccc(O)cc2)(c2ccc(O)cc2)c2ccccc21"
measurementlabel = "EC50"
recordedresult = 8.04


# EC50 (compound: "O=C(NC(=S)Nc1nc(-c2cccc([N+](=O)[O-])c2)cs1)c1ccccc1Cl" ) is 74

Sure, the documented EC50 for "Fc1cccc(F)c1C=NNC(=S)Nc1cccnc1" is 25.4

====

// reported pEC50 for each item listed
studyTarget: Solute carrier family 12 member 5 (Homo sapiens, UniProt Q9H2X9)
Sequence (Q9H2X9 whole entry): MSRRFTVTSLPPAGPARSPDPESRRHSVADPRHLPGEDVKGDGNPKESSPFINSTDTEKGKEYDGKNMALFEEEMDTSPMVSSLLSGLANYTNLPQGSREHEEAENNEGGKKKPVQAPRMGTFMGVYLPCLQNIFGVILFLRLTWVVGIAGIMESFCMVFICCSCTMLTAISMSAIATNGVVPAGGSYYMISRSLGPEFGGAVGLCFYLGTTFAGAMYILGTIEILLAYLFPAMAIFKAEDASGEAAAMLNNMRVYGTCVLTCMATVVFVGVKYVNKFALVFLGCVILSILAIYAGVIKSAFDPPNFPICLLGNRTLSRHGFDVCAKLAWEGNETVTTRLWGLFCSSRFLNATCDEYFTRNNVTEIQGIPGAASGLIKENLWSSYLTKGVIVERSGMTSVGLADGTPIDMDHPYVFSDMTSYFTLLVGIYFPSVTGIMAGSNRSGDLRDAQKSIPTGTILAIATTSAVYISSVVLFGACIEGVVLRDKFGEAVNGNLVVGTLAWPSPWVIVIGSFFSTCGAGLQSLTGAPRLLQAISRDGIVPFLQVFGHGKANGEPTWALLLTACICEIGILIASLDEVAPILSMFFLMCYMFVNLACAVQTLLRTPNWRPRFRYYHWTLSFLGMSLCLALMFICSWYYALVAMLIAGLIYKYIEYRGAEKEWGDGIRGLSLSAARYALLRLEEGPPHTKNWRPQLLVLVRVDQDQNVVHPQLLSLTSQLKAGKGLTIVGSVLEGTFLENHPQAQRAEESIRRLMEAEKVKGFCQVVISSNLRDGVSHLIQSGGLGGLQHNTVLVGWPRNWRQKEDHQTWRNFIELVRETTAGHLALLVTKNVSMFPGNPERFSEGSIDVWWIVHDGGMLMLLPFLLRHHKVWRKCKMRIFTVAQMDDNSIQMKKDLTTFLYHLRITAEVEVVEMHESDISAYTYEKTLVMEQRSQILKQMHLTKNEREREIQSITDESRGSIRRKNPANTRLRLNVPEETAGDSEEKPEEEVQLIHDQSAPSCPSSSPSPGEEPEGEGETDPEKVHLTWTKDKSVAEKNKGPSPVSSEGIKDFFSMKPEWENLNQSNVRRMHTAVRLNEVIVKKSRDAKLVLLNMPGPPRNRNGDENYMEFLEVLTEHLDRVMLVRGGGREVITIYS
measurementProtocol: modulation of KCC2 K-Cl transport – cell-based, assay 2, dose response (AID 1723)
Just the number, please; pEC50 means minus log10 of the concentration in mol/L.

Examples with their reported pEC50 follow.
[[record]]
structurenotation = "O=c1c2ccccc2[nH]c(=S)n1CCN1CCC(=C(c2ccc(F)cc2)c2ccc(F)cc2)CC1"
recordedresult = 5.06

[[record]]
structurenotation = "Cc1[nH]n2c(=O)cc(C(C)C)nc2c1-c1ccccc1"
recordedresult = 4.79

[[record]]
structurenotation = "COc1cc(NC(=S)NC(=O)c2ccco2)ccc1NC(=O)C(C)C"
recordedresult = 4.92

[[record]]
structurenotation = "NC(=S)NN=C1C(=O)N(Cc2ccc(F)cc2)c2ccccc21"
recordedresult = 5.24

[[record]]
structurenotation = "CCOc1[nH]n(-c2ccccc2)c(=O)c1C=Nc1ccc(F)cc1F"
recordedresult = 3.01

[[record]]
structurenotation = "Cc1cccc(N2CCN(C(=O)CCCn3c(=S)[nH]c4cc5c(cc4c3=O)OCO5)CC2)c1C"
recordedresult = 5.02


Entry under test: "Cc1nn(-c2nc3ccccc3[nH]2)c(N)c1-c1ccccc1" . Its pEC50 was 5.85
